system: BDF1 mice, P388 leukemia ip, median survival T/C; experiment: NCI In Vivo Anticancer Drug Screen. Data for tumor model P388 Leukemia (intraperitoneal) in B6D2F1 (BDF1) mice; settings: endpoint: median survival time; dose: 200.0 mg/kg/injection; schedule: Q01DX009 (ip); vehicle: saline with Tween-80; higher = longer survival
Inconclusive results and toxic doses are left out.
Quick reference: T/C of the listed items.
assay metric: T/C

INSERT INTO assay_data (compound, result) VALUES
  ('CC1(C)OC(CI)C(COS(C)(=O)=O)O1 (stereo unspecified)', '112 % of control'),
  ('COc1ccc(/C(=C\S(C)(=O)=O)c2cccs2)cc1', '105 % of control'),
  ('CN(C)c1ccc(/C=C\c2ccnc3c([N+](=O)[O-])cccc23)cc1', '92 % of control'),
  ('Nn1c(-c2ccc([N+](=O)[O-])cc2)nc2ccccc2c1=O', '91 % of control'),
  ('O=C1c2ccccc2C2N1CCCN2C(=O)c1sc2ccccc2c1Cl (stereo unspecified)', '94 % of control'),
  ('c1ccc2c(c1)cc1c3nnnn3ncn21', '89 % of control'),
  ('O=C(Cn1ccc(O)cc1=O)c1cccs1', '97 % of control'),
  ('O=C1/C(=C/c2ccccc2)Cc2ccccc21', '96 % of control'),
  ('COc1cccc(NC(=O)CCC(=O)O)c1', '100 % of control'),
  ('NC(CC(=O)O)c1nn[nH]n1 (stereo unspecified)', '95 % of control'),
  ('COC(OC)c1nc(SC)[nH]c(=O)c1C', '95 % of control'),
  ('Cc1ccc2nc(C)n(C)c(=O)c2c1', '92 % of control'),
  ('O=C1c2ccccc2CC1(Br)C(Br)c1ccccc1 (stereo unspecified)', '108 % of control'),
  ('N#Cc1ccccc1CC(O)(c1ccccc1)c1ccccn1 (stereo unspecified)', '115 % of control'),
  ('CCCCCCOC(CN(C)C)C(Cl)(Cl)Cl (stereo unspecified)', '116 % of control'),
  ('COC(=O)C(CSCSC)NC(=O)/C=C\c1ccccc1 (stereo unspecified)', '109 % of control'),
  ('C=C(C)CP(=O)(c1ccccc1)c1ccccc1', '91 % of control'),
  ('CCCCOCN(COCCCC)c1cccc([N+](=O)[O-])c1', '111 % of control'),
  ('CS(=O)(=O)/C=C(\c1ccccc1)c1cccs1', '96 % of control'),
  ('COc1ccc(C2CCc3cc4c(cc3C2=O)OCO4)cc1OC (stereo unspecified)', '95 % of control'),
  ('COc1cc2ccc(CN3CCCC3C(=O)OCc3ccccc3)cc2cc1OC (stereo unspecified)', '104 % of control'),
  ('CC1(C)OC1CC1=CC(=O)C=CC1=O (stereo unspecified)', '117 % of control'),
  ('O=C(O)C1CCC(=O)N1C(=O)OCc1ccccc1 (stereo unspecified)', '90 % of control'),
  ('Cc1ccn2c(CCc3nnc4cc(C)ccn34)nnc2c1', '106 % of control'),
  ('Fc1ccc(C2CN3C(=N2)C=Cc2ccccc23)cc1 (stereo unspecified)', '117 % of control'),
  ('O=C(Nc1ccc([N+](=O)[O-])cc1Cl)N(CCO)C1CCCCC1', '100 % of control');
